Ref: ChEMBL document CHEMBL1145498

# ASSAY_TARGET: Tyrosine-protein kinase JAK1 (Homo sapiens) (UniProt P23458)
# Sequence (P23458 whole entry): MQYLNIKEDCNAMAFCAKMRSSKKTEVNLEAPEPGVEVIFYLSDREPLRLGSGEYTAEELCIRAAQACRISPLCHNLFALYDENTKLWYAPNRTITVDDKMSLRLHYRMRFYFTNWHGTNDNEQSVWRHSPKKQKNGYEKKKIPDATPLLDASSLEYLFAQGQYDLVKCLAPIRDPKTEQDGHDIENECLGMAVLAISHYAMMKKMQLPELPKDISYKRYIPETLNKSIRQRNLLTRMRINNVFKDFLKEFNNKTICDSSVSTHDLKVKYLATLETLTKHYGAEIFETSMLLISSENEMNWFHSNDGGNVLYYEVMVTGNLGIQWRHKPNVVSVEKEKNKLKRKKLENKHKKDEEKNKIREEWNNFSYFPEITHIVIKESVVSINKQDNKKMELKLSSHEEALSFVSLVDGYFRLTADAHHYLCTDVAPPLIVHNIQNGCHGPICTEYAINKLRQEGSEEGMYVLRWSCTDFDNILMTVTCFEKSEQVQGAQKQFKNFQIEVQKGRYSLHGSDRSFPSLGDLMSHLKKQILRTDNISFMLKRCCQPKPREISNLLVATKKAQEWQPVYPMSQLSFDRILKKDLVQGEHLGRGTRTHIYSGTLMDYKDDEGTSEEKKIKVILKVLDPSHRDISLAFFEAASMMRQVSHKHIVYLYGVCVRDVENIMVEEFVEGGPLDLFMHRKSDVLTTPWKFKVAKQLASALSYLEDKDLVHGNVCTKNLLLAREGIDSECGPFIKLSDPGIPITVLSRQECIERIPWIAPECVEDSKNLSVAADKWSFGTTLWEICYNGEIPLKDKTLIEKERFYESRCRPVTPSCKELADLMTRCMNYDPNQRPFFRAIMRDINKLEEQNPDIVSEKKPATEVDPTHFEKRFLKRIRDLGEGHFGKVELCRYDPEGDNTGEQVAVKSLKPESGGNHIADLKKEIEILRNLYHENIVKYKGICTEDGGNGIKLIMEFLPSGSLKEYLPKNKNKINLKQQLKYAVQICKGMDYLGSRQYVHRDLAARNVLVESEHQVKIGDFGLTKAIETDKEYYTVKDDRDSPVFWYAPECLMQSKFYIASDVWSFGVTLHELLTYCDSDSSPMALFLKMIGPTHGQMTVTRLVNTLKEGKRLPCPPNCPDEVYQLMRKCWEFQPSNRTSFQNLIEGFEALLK
MEASURE_NAME: ΔTm (°C)
API: value field is a number in °C; no unit string.

*Q* Recall and state the measured ΔTm for Oc1cc(O)cc(/C=C/c2ccc(O)c(O)c2)c1 [PICEATANNOL] .
*A* 2

*Q* Recall and state the measured ΔTm for O=c1sn(Cc2ccccc2)c(=S)n1Cc1ccccc1 .
*A* 2.3

*Q* Recall and state the measured ΔTm for O=C1Nc2ccccc2/C1=C/c1cnc[nH]1 .
*A* 6.9

*Q* Recall and state the measured ΔTm for COc1cc2c(cc1OC)-c1n[nH]c(Nc3cccc(F)c3)c1C2 .
*A* 0.4

*Q* Recall and state the measured ΔTm for Nc1nccc(-c2c(-c3ccc(F)cc3)ncn2C2CCNCC2)n1 .
*A* 0.7

*Q* Recall and state the measured ΔTm for Nc1n[nH]c2nc3ccccc3nc12 [QUINOXALINE1] .
*A* 2.2

*Q* Recall and state the measured ΔTm for CCCNC(=O)Nc1ccc(Oc2ncnc3cc(OC)c(OC)cc23)cc1Cl [KRN-633] .
*A* 1

*Q* Recall and state the measured ΔTm for CC(C)c1cc(/C=C(\C#N)C(=O)NCCCc2ccccc2)cc(C(C)C)c1O .
*A* 0.1

***
*Q* Recall and state the measured ΔTm for Cn1cnc2c(NCc3ccccc3)nc(NCCO)nc21 [OLOMOUCINE] .
*A* 0

*Q* Recall and state the measured ΔTm for O=C1c2ccccc2-[n+]2ccc3c([nH]c4ccccc43)c21 [FASCAPLYSIN CHLORIDE] .
*A* -1.5

*Q* Recall and state the measured ΔTm for CCN(CC)CCNC(=O)c1c(C)[nH]c(/C=C2\C(=O)Nc3ccc(F)cc32)c1C .
*A* 5.5

*Q* Recall and state the measured ΔTm for O=c1cc(N2CCOCC2)oc2c(-c3ccccc3)cccc12 .
*A* 0.6

*Q* Recall and state the measured ΔTm for O=c1c(O)c(-c2ccc(O)c(O)c2)oc2cc(O)cc(O)c12 [QUERCETIN] .
*A* 8.2

====

Attribute: ΔTm
# ASSAY_TARGET: Calcium/calmodulin-dependent protein kinase type 1D (Homo sapiens) (UniProt Q8IU85)
# Sequence (Q8IU85 whole entry, looked up): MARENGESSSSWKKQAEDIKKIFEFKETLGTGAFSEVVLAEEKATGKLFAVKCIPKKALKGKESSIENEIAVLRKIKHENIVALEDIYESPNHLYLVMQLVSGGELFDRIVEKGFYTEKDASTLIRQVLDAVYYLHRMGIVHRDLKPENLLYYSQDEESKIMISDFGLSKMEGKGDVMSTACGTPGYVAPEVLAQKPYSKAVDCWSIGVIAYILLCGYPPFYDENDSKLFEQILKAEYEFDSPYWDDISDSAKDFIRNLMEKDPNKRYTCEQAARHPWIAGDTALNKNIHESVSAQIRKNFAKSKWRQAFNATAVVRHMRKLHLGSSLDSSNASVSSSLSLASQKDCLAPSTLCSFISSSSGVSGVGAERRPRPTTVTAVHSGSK
API: value field is a number in °C; no unit string.

*Q* # assay system Calcium/calmodulin-dependent protein kinase type 1D (Homo sapiens) (UniProt Q8IU85): give ΔTm of Cc1cc(C=C2C(=O)C=CC2=O)cc(C)c1O
*A* -1

*Q* # assay system Calcium/calmodulin-dependent protein kinase type 1D (Homo sapiens) (UniProt Q8IU85): give ΔTm of Cc1ccc(NC(=O)c2cccc(N(C)C)c2)cc1NC(=O)c1ccc(O)cc1
*A* 0.3

***
*Q* # assay system Calcium/calmodulin-dependent protein kinase type 1D (Homo sapiens) (UniProt Q8IU85): give ΔTm of C=CNC#N
*A* 0.7

*Q* # assay system Calcium/calmodulin-dependent protein kinase type 1D (Homo sapiens) (UniProt Q8IU85): give ΔTm of COc1ccc2c(c[n+](C)c3c4cc5c(cc4ccc23)OCO5)c1OC [CHELERYTHRINE CHLORIDE]
*A* -5.3

*Q* # assay system Calcium/calmodulin-dependent protein kinase type 1D (Homo sapiens) (UniProt Q8IU85): give ΔTm of O=c1c2ccccc2[nH]c(=S)n1CCN1CCC(=C(c2ccc(F)cc2)c2ccc(F)cc2)CC1
*A* 0.8

*Q* # assay system Calcium/calmodulin-dependent protein kinase type 1D (Homo sapiens) (UniProt Q8IU85): give ΔTm of O=c1c(-c2ccc(O)cc2)coc2cc(O)cc(O)c12
*A* 0.7

*Q* # assay system Calcium/calmodulin-dependent protein kinase type 1D (Homo sapiens) (UniProt Q8IU85): give ΔTm of N#CCCc1ccc2c(c1)-c1[nH]c3ccc([N+](=O)[O-])cc3c1CC(=O)N2
*A* 0.6

*Q* # assay system Calcium/calmodulin-dependent protein kinase type 1D (Homo sapiens) (UniProt Q8IU85): give ΔTm of CN1CCc2[nH]c(=S)c(C#N)c(-c3cccs3)c2C1
*A* 1.3

*Q* # assay system Calcium/calmodulin-dependent protein kinase type 1D (Homo sapiens) (UniProt Q8IU85): give ΔTm of Nc1cc2ncnc(Nc3cccc(Br)c3)c2cc1N
*A* 0.6

*Q* # assay system Calcium/calmodulin-dependent protein kinase type 1D (Homo sapiens) (UniProt Q8IU85): give ΔTm of O=c1cc(-c2ccc(O)cc2)oc2cc(O)cc(O)c12
*A* 1

====

# ASSAY_TARGET: Dual specificity protein kinase CLK2 (Homo sapiens) (UniProt P49760)
# Sequence (P49760 whole entry, looked up): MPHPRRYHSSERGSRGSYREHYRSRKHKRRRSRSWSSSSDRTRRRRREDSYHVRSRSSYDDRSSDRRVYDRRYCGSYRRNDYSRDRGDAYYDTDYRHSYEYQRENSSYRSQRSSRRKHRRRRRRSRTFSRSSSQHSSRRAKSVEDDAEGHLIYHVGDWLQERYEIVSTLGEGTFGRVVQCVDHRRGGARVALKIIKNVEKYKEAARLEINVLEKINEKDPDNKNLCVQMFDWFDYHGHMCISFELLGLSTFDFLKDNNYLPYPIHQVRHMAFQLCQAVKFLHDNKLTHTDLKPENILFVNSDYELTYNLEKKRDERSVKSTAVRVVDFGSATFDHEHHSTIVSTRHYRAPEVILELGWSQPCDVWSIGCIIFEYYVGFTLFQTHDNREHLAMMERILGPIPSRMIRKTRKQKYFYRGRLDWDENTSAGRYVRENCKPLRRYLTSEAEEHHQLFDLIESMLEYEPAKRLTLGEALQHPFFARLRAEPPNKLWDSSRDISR
Decision: ΔTm >= 2 °C yields True, all other cases yield False.

*Q* Would you say CC(=O)O/N=C1/C(=C2/C(=O)Nc3cc(Br)ccc32)Nc2ccccc21 shows ΔTm at minimum 2 °C?
*A* True

*Q* Would you say N#C/C(=C1/Nc2ccccc2S1)c1ccnc(NCCc2cccnc2)n1 shows ΔTm at minimum 2 °C?
*A* True

*Q* Would you say COc1nccc(-c2c(-c3ccc(F)cc3)ncn2[C@H]2CC[C@H](O)CC2)n1 shows ΔTm at minimum 2 °C?
*A* False

*Q* Would you say CCOc1cc(/C=C(\C#N)C(N)=O)cc(CSc2ccccc2)c1O shows ΔTm at minimum 2 °C?
*A* False

*Q* Would you say Cc1ccc(NC2=CC(=O)c3sc(C)nc3C2=O)cc1 shows ΔTm at minimum 2 °C?
*A* False

*Q* Would you say COc1cccc(-c2cc(=O)c3ccccc3o2)c1N shows ΔTm at minimum 2 °C?
*A* False

*Q* Would you say COc1ccc2c(c1)/C(=C/c1cnc[nH]1)C(=O)N2 shows ΔTm at minimum 2 °C?
*A* True

*Q* Would you say O=C1NC(=O)c2c1c1c3ccccc3n3c1c1c2c2ccccc2n1C1CCC3O1 shows ΔTm at minimum 2 °C?
*A* False

***
*Q* Would you say COc1cc(/C=C/C(=O)CC(=O)/C=C/c2ccc(O)c(OC)c2)ccc1O shows ΔTm at minimum 2 °C?
*A* True

*Q* Would you say Cc1nc2sccn2c(=O)c1CCN1CCC(=C(c2ccccc2)c2ccc(F)cc2)CC1 shows ΔTm at minimum 2 °C?
*A* True

====

# ASSAY_TARGET: Dual specificity protein kinase CLK2 (Homo sapiens) (UniProt P49760)
Note to self: class = bucket of ΔTm, per low band (below 0.6 °C), middle band (0.6 °C to below 4 °C), high band (4 °C or more)

Examples with answers:
*Q* // return the class label for COC(=O)[C@]1(O)C[C@@H]2O[C@@]1(C)n1c3ccccc3c3c4c(c5c6ccccc6n2c5c31)C(=O)NC4 (single isomer, unassigned)
*A* high band

*Q* // return the class label for COc1cc2ncnc(Nc3ccc(NC(=O)c4ccccc4)cc3)c2cc1OC
*A* low band

*Q* // return the class label for Nc1nccc(-c2c(-c3ccc(F)cc3)ncn2C2CCNCC2)n1
*A* low band

*Q* // return the class label for Cc1nc(N)sc1-c1ccnc(Nc2cccc([N+](=O)[O-])c2)n1
*A* high band

*Q* // return the class label for O=C1c2ccccc2-[n+]2ccc3c([nH]c4ccccc43)c21 [FASCAPLYSIN CHLORIDE]
*A* low band

*Q* // return the class label for CC(C)(C)c1nc2c3ccc(F)cc3c3c(=O)[nH]ccc3c2[nH]1
*A* middle band

*Q* // return the class label for O=C1NC(=O)C(c2cn(CCCn3ccnc3)c3ccccc23)=C1Nc1ccccc1
*A* high band

*Q* // return the class label for CC(C)N(CCO)c1nc(Nc2cccc(Cl)c2)c2ncn(C(C)C)c2n1
*A* high band

*Q* // return the class label for Cc1cc(Nc2nc(-c3ccccc3)nc3ccccc23)n[nH]1
*A* middle band

*Q* // return the class label for O=C1C=C2C(=Nc3c2c2c(c4c3=NC3=C4CCC=C3)C=NC=2)CC1
*A* high band

Continue with the molecule presented below.
*Q* // return the class label for Nc1cc2ncnc(Nc3cccc(Br)c3)c2cc1N
*A* middle band

====

Form: system (Serine/threonine-protein kinase Chk2 (Homo sapiens)), quantity (ΔTm), values below.
API: value field is a number in °C; no unit string.

*Q* Recall and state the measured ΔTm for O=C1C(Cl)=C(N2C(=O)CCC2=O)C(=O)c2ccccc21 .
*A* 5.6

*Q* Recall and state the measured ΔTm for O=c1c(-c2ccc(F)cc2)c(-c2ccncc2)[nH]n1-c1ccc(Cl)cc1 .
*A* 0.3

*Q* Recall and state the measured ΔTm for COc1cc2ncnc(Nc3ccc(F)c(Cl)c3)c2cc1OCCCN1CCOCC1 .
*A* 3.1

***
*Q* Recall and state the measured ΔTm for COc1cc2c(cc1OC)-c1n[nH]c(Nc3cccc(F)c3)c1C2 .
*A* -0.1

*Q* Recall and state the measured ΔTm for N#C/C(=C(/N)Sc1ccc(N)cc1)c1ccccc1C(F)(F)F .
*A* 0.3

*Q* Recall and state the measured ΔTm for CCN(CC)CCNC(=O)c1c(C)[nH]c(/C=C2\C(=O)Nc3ccc(F)cc32)c1C .
*A* 12.9

*Q* Recall and state the measured ΔTm for COc1ccc2c(c[n+](C)c3c4cc5c(cc4ccc23)OCO5)c1OC [CHELERYTHRINE CHLORIDE] .
*A* -3.9

*Q* Recall and state the measured ΔTm for COc1ccc(Cl)cc1NC(=O)Nc1cc(C)nc2ccccc12 .
*A* 2.4

*Q* Recall and state the measured ΔTm for CCOC(=O)c1c(C)[nH]c(/C=C2\C(=O)Nc3ccccc32)c1C .
*A* 0.7

*Q* Recall and state the measured ΔTm for O=c1sn(Cc2ccccc2)c(=S)n1Cc1ccccc1 .
*A* 0.3
